Assayed system: T1, human wt-ERα LBD (estrogen receptor alpha ligand-binding domain, amino acids 302-552) (human, UniProt P03372 302-552)
T1 sequence (looked up): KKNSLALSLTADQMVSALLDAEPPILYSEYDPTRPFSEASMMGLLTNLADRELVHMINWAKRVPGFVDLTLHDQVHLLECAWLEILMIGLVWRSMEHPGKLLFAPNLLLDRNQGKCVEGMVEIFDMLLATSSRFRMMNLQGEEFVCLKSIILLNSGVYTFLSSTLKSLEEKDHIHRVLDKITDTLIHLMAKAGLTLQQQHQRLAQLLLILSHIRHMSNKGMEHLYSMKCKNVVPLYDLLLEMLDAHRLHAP
Assay remarks: fluorescence polarisation; fluorescence anisotropy; 4 nM fluorescein-SRC-1 NR2 peptide, LBD diluted 2-fold from 10 uM (ERα) or 20 uM (ERβ); in the absence of ligand (apo-receptor); 20 mM Tris pH 8.0, 150 mM NaCl, 5 mM DTT, 10% glycerol
Applied conditions: both partners purified
Where no end group is shown, it is not given here. fluorescein = fluorescein label on the N-terminus of the peptide
Value type: pKd
pKd field: float, defined as -log10 of concentration (mol/L).

Query (binder): fluorescein-RHKILHRLLQEGS (also called SRC-1 NR2 peptide; fluorescein-labeled SRC-1 NR2 peptide; source: bought: EZbiolab) [fluorescein-RHKILHRLLQEGS peptide corresponding to the NR box 2-binding motif of SRC-1] ; field requested: pKd
5.20
